# testedTarget: Fuc(a1-2)Gal(b1-4)Glc
# testSummary: glycan array binding signal (z-score within array); higher = stronger binding
# experimentalSetup: glycan notation: IUPAC condensed, linker removed
Shown is part of a subset that was picked to be rich in the strongest signals.
Lab note: class by glycan array binding signal (z-score), see c1 (below -0.3), c2 (-0.3 to below 0.8), c3 (0.8 or more)

Check out these entries, answers already filled in.
binder	className
UEA-I (Ulex europaeus), P22972 (protein) SDDLSFKFKNFSQNGKDLSFQGDASVIETGVLQLNKVGNNLPDETGGIARYIAPIHIWNCNTGEVASFITSFSFFMETSANPKAATDGLTFFLAPPDSPLRRAGGYFGLFEDTKDNDSSYQTVAVEFDTIGSPVNFDDPGFPHIGIDVNRVKSINAERWNKRYGLNNVANVEIIYEASSKTLTASLTYPSDQTSISVTSIVDLKEILPEWVSVGFSGGTYIGRQATHEVLNWYFTSNLINTNS	c3
ERGIC1-EDTA (Homo sapiens), Q969X5 (protein) MKFLVNVALVFMVVYISYIYAAAHMHHHHHHDYDIPTTENLYFQGSEVVNELYVDDPDKDSGGKIDVSLNISLPNLHCELVGLDIQDEMGRHEVGHIDNSMKIPLNNGAGCRFEGQFSINKVPGNFHVSTHSATAQPQNPDMTHVIHKLSFGDTLQVQNIHGAFNALGGADRLTSNPLASHDYILKIVPTVYEDKSGKQRYSYQYTVANKEYVAYSHTGRIIPAIWFRYDLSPITVKYTE	c1
Nc3LysM (protein) QFTVPPDTTAEPNTIKTCTWWHVAGSGDSCTSIASTYGITSEQFARWDMETTDSPKNPSVATACKLTVGNSYCIENNFGQDDPPTPSISSSTLIGTATTSTTASTTTGNGISTPTPIQEGMETATTTTSSGNGITTPTPTQAGMETVGNCDRFHLVKSGDQCGTIASTYGITLANFYSWNPAVGTSCQSLWLDTYVCVRTIGFVPPKTTTTTTKKPTSTTSAGGVATPTPTQPGMETVSGCKKFHKGRGNVSTVASGDQCGTIATRYGISLANFYSWNPAVGSSCQTLWLDYYVCVGR	c2

# evaluate next
## Task Hey, which category is CML1 (Coprinopsis cinerea) (protein) MAIFHTGSELFIITRGPGKLTLLTWGGLNNLRSVIGAIPTENTGVTKWAVSFSHNYTRFSFIWEGQGEACYQIGNGLTRSPVGRSWSSSSTIHWGSSTVITEDVTSVVPGAVNRDKVTTAYALPDNL in, do you know?
## Result c2
